System: Plasmodium falciparum
ASSAY EXPLANATION: GSK_TCMDC: Inhibition of Plasmodium falciparum 3D7 in whole red blood cells, using parasite LDH activity as an index of growth. Test compounds present at 2uM
Assay type: functional
RESULT TYPE: Inhibition (%)
Give bare numbers, in %.

As a guide, the following entries are already answered.
{"columns": ["COMPOUND", "Inhibition, %"],
 "data": [
  ["CCCNC[C@@H](O)[C@H](Cc1ccccc1)NC(=O)c1cc(NCC)cc(N2CCCC2=O)c1", 100],
  ["O=C(Nc1ccc(OC2CCN(CC3CC3)CC2)c(Cl)c1)c1ccc2ncccc2c1.O=C(O)C(F)(F)F", 84],
  ["C[C@@H](NC(=O)c1nn(-c2ccc(Cl)cc2)c(=O)c2ccccc12)C(C)(C)C", 95]
]}

Each compound below has a reported value. Please supply its Inhibition.
1. Cc1ccc2c(c1)C1(CC(=O)N(CCc3scnc3C)C1=O)C(=O)N2Cc1ccccc1 (centres undefined)
2. COc1ccc(Nc2nc(N/N=C/c3ccc(O)cc3)nc(Nc3ccc([N+](=O)[O-])cc3)n2)cc1

1. 83
2. 93

Batch lookup, Inhibition per entry.
1. O=C(NOCCOc1ccccc1)c1ccccc1
2. Cc1cc(O)nc(NC(=N)NOCc2ccccc2)n1
3. Br.COc1cccc(OC)c1OCCCON1C(=N)N=C(N)NC1(C)C
4. CNC(=O)Cc1ccc(C(=O)Nc2cccc(-c3cccc(-c4nc5cc(C(F)(F)F)ccc5[nH]4)c3)c2)cc1
5. Cl.c1ccc(Oc2cccc(Nc3ccnc4ccccc34)c2)cc1
6. COc1ccc(NC(=O)/C=C/c2ccccc2Cl)cc1OCCN1CCC(NCc2ccccc2)CC1
7. CCCNCc1ccc(-c2ccc(CN(C(=O)c3nn(-c4ccccc4)nc3C)C(C)CN(C)C)cc2)nc1.O=C(O)C(F)(F)F (centres undefined)

1: 98; 2: 100; 3: 95; 4: 95; 5: 95; 6: 100; 7: 95

// each compound listed below needs its Inhibition
1. O=C(/C=C/c1c(Cl)cccc1Cl)NC1CCC(CN2CCC(Cc3cc4ccccc4[nH]3)CC2)CC1 (centres undefined)
2. O=C(Nc1cc(Cl)ccc1O)c1cnn2c(C(F)(F)F)cc(-c3cccs3)nc12
3. O=C(NNC(=O)c1ccc(CN2CCC(c3nc4ccccc4[nH]3)CC2)cc1)Nc1ccc(Oc2ccccc2)cc1.O=C(O)C(F)(F)F
4. O=C(O)C(F)(F)F.c1ccc(CNCc2cccc(-c3cccc(-c4nc5ccccc5[nH]4)c3)c2)cc1
5. CCc1cc2c(Sc3nc4ccccc4[nH]3)ncnc2s1
6. CS(=O)(=O)Cc1ccc(Nc2nccc(-c3c(-c4cccc(C(=O)Nc5c(F)cccc5F)c4)nn4ccccc34)n2)cc1
7. C[C@H](NC(=O)c1c(CN2CCN(C(=O)C(C)(C)C)CC2)c(-c2cccs2)nc2ccccc12)C1CCCCC1

1: 91; 2: 100; 3: 86; 4: 100; 5: 97; 6: 96; 7: 89
